# Tested on: U-251
# protocol_details: NCI tumour cell line growth inhibition, 48 h
Active and inactive are the calls of the source. Cut-off read from the data, not from the text of the source: active = GI50 up to about 1.1 µM and inactive = higher.
endpoint_label: GI50

Recorded results for 10 compounds are shown here.
INSERT INTO results (compound, readout_value) VALUES
  ('C=C1C(=O)OC2C1C(OC(=O)/C(=C/C)COC(C)=O)CC1(CO1)C1C(OC(=O)/C(=C/C)CO)C=C(C)C21 (configuration not stated)', '15.1 µM (inactive)'),
  ('CCOc1ccc(NC(=O)/C(=C/c2ccccc2)C(C)=O)cc1', '12.6 µM (inactive)'),
  ('COc1cc2c(cc1C)[n+]([O-])c(C)c(C(=O)C/C(=N/NC(=O)C[N+](C)(C)C)C(=O)Nc1cccc(Cl)c1C)[n+]2[O-]', '> 100 µM (inactive)'),
  ('CCOC(=O)CCC(NC(=O)c1ccc(OCc2ccc3nc(OC)c(OC)nc3c2)cc1)C(=O)OCC (configuration not stated)', '> 100 µM (inactive)'),
  ('CC(=O)N1N(c2ccc([N+](=O)[O-])cc2)C(=O)C1(C)C', '21.7 µM (inactive)'),
  ('CC1=C(O)C(=O)C[C@]2(C)[C@H]3CC=C4[C@@H]5CC(C)(C)CC[C@@H]5C(=O)[C@H](O)[C@@]4(C)[C@]3(C)CC[C@@H]12', '27.5 µM (inactive)'),
  ('COc1ccc(C(=O)C(c2ccc(OCc3ccccc3)cc2)c2ccc(OCc3ccccc3)cc2)cc1', '> 100 µM (inactive)'),
  ('Cc1ccc(S(=O)(=O)c2ccc(C)cc2[N+](=O)[O-])cc1', '> 100 µM (inactive)'),
  ('CCc1n[nH]c(=O)n1N1C(=O)CCC1=O', '> 100 µM (inactive)'),
  ('O=[As](O)(O)c1ccc(/N=N/c2ccc(O)cc2)cc1', '> 100 µM (inactive)');

Below are some compounds; for each one, tell me its GI50.
1. CC(C)C(=O)/C=C/c1ccc(Cl)c(Cl)c1
2. C(CCCCc1nnc(N2CCCCC2)o1)CCCc1nnc(N2CCCCC2)o1

["17 µM (inactive)", "> 100 µM (inactive)"]

====

Could you please report measured GI50 for the items listed next?
# System: 786-0
# protocol_details: NCI tumour cell line growth inhibition, 48 h
Activity calls are given as the source filed them. Cut-off read from the data, not from the text of the source: active = GI50 up to about 1.1 µM and inactive = higher.

INSERT INTO results (compound, target, readout_value) VALUES
  ('CN1C/C(=C\c2cccs2)C2=NN(c3ccccc3)C(c3cccs3)C2C1 (stereo not given)', '786-0', '3.49 µM (inactive)');

The following compounds each have a reported value; give each one's GI50.
1. Cc1ccc([S+](c2ccccc2)c2cc(C)ccc2C)cc1.O=C(OC(C(=O)[O-])C(OC(=O)c1ccccc1)C(=O)O)c1ccccc1 (stereo not given)
2. CC(=O)N(C(C)=O)n1c(Cc2ccc(Cl)cc2)nn(C(C)=O)c1=O

26.2 µM (inactive)
> 100 µM (inactive)

# batch: return GI50 for each of the 2 compounds below
1. CCOC(=O)c1sc2nc(-c3ccccc3)nn2c1CBr
2. C[N+](C)(C)CC(=O)N/N=C(/C(=O)Nc1ccc(Br)cc1)C1C(=O)NC(=O)NC1=O

1. 1.6 µM (inactive)
2. > 100 µM (inactive)
